Source: the supplement of paper PMC9694430

# Test system: LOC_OS01G52050-cb004
# Sequence (whole entry): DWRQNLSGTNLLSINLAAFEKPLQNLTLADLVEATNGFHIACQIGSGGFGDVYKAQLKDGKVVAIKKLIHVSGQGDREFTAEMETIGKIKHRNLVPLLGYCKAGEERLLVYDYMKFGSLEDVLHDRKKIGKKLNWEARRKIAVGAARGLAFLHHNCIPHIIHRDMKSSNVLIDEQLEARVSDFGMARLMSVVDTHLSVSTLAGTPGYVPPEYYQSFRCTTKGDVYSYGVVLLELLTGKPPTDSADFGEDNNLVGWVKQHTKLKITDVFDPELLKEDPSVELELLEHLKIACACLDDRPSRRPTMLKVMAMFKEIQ
# assay: thermal shift delta Tm vs DMSO control; higher = stronger stabilization (binding);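 further: purified Escherichia coli-expressed rice kinase domain construct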
# condition_label: 12.5 µM; protein concentration 2 µM
Where a name gives a salt, the structure may show the parent alone.
measured_metric: thermal shift delta Tm (°C)

# compound, target_desc, measured_metric, value
records = [
    ("COCCOc1cnc2ccn([C@H](C)c3nnc4c(F)cc(-c5cnn(C)c5)cn34)c(=O)c2c1", "LOC_OS01G52050-cb004", "thermal shift delta Tm", 0.4),
    ("CN1CC[C@H](c2c(O)cc(O)c3c(=O)cc(-c4ccccc4Cl)oc23)[C@H](O)C1 [Flavopiridol HCl]", "LOC_OS01G52050-cb004", "thermal shift delta Tm", 1.03),
    ("CN1CCN(c2cccc(Nc3nc4c(-c5ccc(S(C)(=O)=O)cc5)cccn4n3)c2)CC1", "LOC_OS01G52050-cb004", "thermal shift delta Tm", 2.68),
    ("O=c1c(-c2ccc(O)cc2)coc2cc(O)cc(O)c12", "LOC_OS01G52050-cb004", "thermal shift delta Tm", 1.14),
    ("N=C(N)NC(=N)NCCc1ccccc1 [Phenformin HCl]", "LOC_OS01G52050-cb004", "thermal shift delta Tm", 0.48),
]

====

# Test system: LOC_OS01G70970-cb002
# assay: thermal shift delta Tm vs DMSO control; higher = stronger stabilization (binding)
# condition_label: 12.5 µM; protein concentration 2 µM
thermal shift delta Tm: recorded values

# structure_as_smiles, quantity_unit, thermal shift delta Tm
measured = [
    ("Cc1ncc(-c2ccnc(Nc3ccc(S(C)(=O)=O)cc3)n2)n1C(C)C", "°C", 1.45),
    ("C[C@H](CN(C)C)Oc1nc(Nc2cc3cccc(Cl)c3cn2)cnc1C#N", "°C", 0.34),
    ("COc1cc2nccc(Oc3ccc(NC(=O)C4(C(=O)Nc5ccc(F)cc5)CC4)cc3)c2cc1OC", "°C", 1.37),
    ("Cn1cc(-c2ccc3c(c2)CCN3C(=O)Cc2cccc(C(F)(F)F)c2)c2c(N)ncnc21", "°C", 0.54),
    ("C=CC(=O)Nc1cccc(Nc2nc(Nc3ccc(Oc4ccnc(C(=O)NC)c4)cc3)ncc2F)c1", "°C", 1.63),
    ("CN1CCCN(C(=O)c2cccc(-c3ccc(/C=C4/C(=O)Nc5ccc(Cl)cc54)o3)c2)CC1", "°C", 1.61),
    ("Cc1cc(Nc2cc(N)ncn2)c(=O)n2c1C(=O)NC21CCCCC1", "°C", 0.38),
    ("CCn1cc(-c2ccnc3[nH]c(-c4cccc(CN(C)C)c4)cc23)c(-c2ccc(NC(=O)N(C)C)cc2)n1", "°C", 0.18),
    ("O=C(O)CCC(=O)Nc1ccc(Br)cn1", "°C", 0.23),
]
